Target: T1, human ceruloplasmin (human, UniProt P00450 20-1065)
T1 construct: also called CP; purified CP
T1 sequence: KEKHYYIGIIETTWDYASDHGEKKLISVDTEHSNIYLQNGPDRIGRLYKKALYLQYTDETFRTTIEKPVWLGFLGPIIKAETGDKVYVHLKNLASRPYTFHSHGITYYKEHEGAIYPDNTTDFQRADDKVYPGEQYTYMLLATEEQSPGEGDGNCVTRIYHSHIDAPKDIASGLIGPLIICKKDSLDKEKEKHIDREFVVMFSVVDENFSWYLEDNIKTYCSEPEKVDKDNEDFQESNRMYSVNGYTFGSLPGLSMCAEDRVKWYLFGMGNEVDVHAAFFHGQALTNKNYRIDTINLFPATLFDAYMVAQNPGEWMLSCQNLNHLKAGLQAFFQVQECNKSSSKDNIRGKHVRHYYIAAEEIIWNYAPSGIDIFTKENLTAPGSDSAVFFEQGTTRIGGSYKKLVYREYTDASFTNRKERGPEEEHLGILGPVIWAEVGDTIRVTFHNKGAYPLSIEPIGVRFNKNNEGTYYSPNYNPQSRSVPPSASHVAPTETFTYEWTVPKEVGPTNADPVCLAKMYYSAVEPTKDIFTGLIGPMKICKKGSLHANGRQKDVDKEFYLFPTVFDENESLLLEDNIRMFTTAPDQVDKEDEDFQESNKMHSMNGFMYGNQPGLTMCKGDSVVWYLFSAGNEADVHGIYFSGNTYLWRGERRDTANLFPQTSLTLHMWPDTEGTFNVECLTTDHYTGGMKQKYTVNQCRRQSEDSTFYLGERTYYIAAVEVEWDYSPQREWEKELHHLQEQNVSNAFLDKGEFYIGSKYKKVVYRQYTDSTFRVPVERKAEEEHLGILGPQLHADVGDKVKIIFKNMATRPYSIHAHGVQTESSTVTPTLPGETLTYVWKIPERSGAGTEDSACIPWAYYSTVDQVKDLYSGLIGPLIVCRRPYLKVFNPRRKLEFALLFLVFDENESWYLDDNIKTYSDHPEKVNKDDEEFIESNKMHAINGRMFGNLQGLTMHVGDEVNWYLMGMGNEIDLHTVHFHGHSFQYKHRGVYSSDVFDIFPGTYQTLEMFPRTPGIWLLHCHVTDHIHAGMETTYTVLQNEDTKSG
Test: competition ELISA on coated CP, biotinylated probe; competitor: mAb H

- Binder: "anti-CP mAb C (antibody, V domains shown, Recombinant full-length rabbit IgG from HEK-293; also called mAb2) VH: QSVEESGGRLVTPGTPLTLTCTASGFSLSRYYMSWVRQAPGKGLEWIGMIYPSSGSTWYASWVKGRFTISATATSVDLKITSPTTEDTATYFCVRDRYPGYNGDSFNLWGQGTLVTVSS VL: AQVLTQTASPVSAAVGSTVTINCQASQSVYNNNYLAWFQQKPGQPPKRLIYQASKLAIGVPSRFSGSGSGTQFTLTISDVQCDDAATYYCLGSYGCNSVDCNVFGGGTEVVVKG"
  probe binding, % of diluent control (%): 85
